The origin of these recorded values is the supplement of paper PMC10567573.

Reported protein stability index is given for each of the following variants.
B1: FAM189A2 (parent)
chain: VAAALRYLQIFATRRSCIDESQIS

Variants of: B1
TEST_DESCRIPTION: protein stability index of a GFP-peptide fusion (GPS, HEK-293T) (PSI 1-6); higher = more stable;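 note: lentivirally expressed fusions sorted by FACS into six bins by GFP to DsRed ratio, PSI derived from sequencing read proportions per bin multiplied by bin number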
CONDITION_SUMMARY: c terminus: a fixed tail appended
Give the figure by itself; no unit, no explanation.

mutation_descriptor=Y7A recorded_value=1.95
mutation_descriptor=T13A recorded_value=1.71
mutation_descriptor=S16N recorded_value=1.57
mutation_descriptor=C17P recorded_value=2.05
mutation_descriptor=S21M recorded_value=3.11
mutation_descriptor=V1G recorded_value=1.67
mutation_descriptor=A3F recorded_value=1.83
mutation_descriptor=L8K recorded_value=1.89
mutation_descriptor=S21H recorded_value=2.45
mutation_descriptor=Q22Y recorded_value=1.16

Per the record, A3G has protein stability index of 2.61

Per the record, A2Y has protein stability index of 2.15

Per the record, S24G has protein stability index of 2.54

Per the record, I10H has protein stability index of 1.7

Per the record, Q9V has protein stability index of 2.85

Per the record, I10N has protein stability index of 2.51

Per the record, Q22V has protein stability index of 2.87

Per the record, R15D has protein stability index of 1.88

Per the record, E20A has protein stability index of 1.65

Per the record, Y7D has protein stability index of 1.76

Per the record, S24Y has protein stability index of 1.78

Per the record, R15Q has protein stability index of 1.67

Per the record, S21C has protein stability index of 1.98

Per the record, I18W has protein stability index of 4.01

Per the record, I18V has protein stability index of 1.89

Per the record, T13R has protein stability index of 1.51

Per the record, A3T has protein stability index of 4.19
